- tested.target: human 5-HT2C receptor (Homo sapiens, UniProt P28335)
- Sequence (P28335 33-458): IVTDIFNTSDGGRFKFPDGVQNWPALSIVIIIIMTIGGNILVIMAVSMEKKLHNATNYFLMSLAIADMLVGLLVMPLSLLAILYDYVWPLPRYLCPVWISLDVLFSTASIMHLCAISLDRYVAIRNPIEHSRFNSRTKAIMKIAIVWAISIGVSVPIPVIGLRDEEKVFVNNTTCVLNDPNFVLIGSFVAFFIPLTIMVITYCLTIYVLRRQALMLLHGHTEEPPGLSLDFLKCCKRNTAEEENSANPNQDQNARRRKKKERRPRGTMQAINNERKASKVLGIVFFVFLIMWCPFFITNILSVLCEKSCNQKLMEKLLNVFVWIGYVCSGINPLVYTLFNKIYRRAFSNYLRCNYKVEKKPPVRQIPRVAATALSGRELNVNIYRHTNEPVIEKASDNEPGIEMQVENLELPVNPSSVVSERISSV
- experiment: 5-HT2C receptor-stimulated calcium mobilization (FLIPR) in CHO cells;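 also: Fluo-3-AM fluorescence read on FLIPR every 1 s, agonist added after 10 baseline reads, response taken as peak minus lowest raw fluorescence count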
- Type: cell-based
- settings: CHO, percentage of the response observed with a maximally effective concentration of 5-HT; read-out: 5-HT2C Function Emax (%)
# Lookup of reported Emax keyed by entry
Number first, unit second: that is the form wanted.

Worked cases, Emax given:
molecule | result
Cc1cccc(C)c1-c1cc(Cl)cc2c1OC(CNC1CC1)C2 (racemic) | 80%
CNCC1Cc2cc(Cl)cc(-c3cc(Cl)ccc3OC)c2O1 (racemic) | 80%
Cc1ccccc1-c1cc(F)c(F)c2c1OC(CN)C2 (racemic) | 70%
CCCNCC1Cc2cc(Cl)cc(-c3c(C)cccc3C)c2O1 (racemic) | 60%
CNCC1Cc2cc(OC)cc(-c3cccc(F)c3F)c2O1 (racemic) | 60%
NCC1Cc2cc(Cl)cc(-c3cc(Cl)ccc3Cl)c2O1 (racemic) | 100%

Report Emax from human 5-HT2C receptor (Homo sapiens, UniProt P28335) testing of CNCC1Cc2cc(Cl)cc(-c3c(C)cccc3C)c2O1 (racemic) [Example 461]
80%

Report Emax from human 5-HT2C receptor (Homo sapiens, UniProt P28335) testing of NCC1Cc2cccc(-c3ccc(F)cc3)c2O1 (single isomer, unassigned; (+)) [Example 74]
100%

Report Emax from human 5-HT2C receptor (Homo sapiens, UniProt P28335) testing of Cc1cccc(-c2cccc3c2OC(CN)C3)c1 (single isomer, unassigned; (+))
100%

Just for reference, patent US7435837B2 is where these values come from.
